Target: dopaminergic receptors D3 (Homo sapiens)
Sequence (P35462 whole entry): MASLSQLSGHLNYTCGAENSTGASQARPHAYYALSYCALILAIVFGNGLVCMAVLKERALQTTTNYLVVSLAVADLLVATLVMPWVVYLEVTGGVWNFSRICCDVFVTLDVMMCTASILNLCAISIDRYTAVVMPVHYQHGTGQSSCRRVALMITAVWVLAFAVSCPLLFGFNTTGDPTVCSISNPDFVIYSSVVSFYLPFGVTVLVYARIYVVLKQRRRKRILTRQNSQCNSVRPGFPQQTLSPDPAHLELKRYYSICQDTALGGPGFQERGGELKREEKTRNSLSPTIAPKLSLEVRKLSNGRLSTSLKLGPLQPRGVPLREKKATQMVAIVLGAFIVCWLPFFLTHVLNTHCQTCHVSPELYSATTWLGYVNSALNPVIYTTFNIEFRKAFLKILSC
Experiment: Radioligand binding assay, dopaminergic D3 receptors
Details: test compound 1×10^−6 M
Text: The specific ligand binding to the receptors is defined as the difference between the total binding and the non-specific binding determined in the presence of the excess of unlabelled ligand. The results are expressed as a percent of control specific binding ((measured specific binding/control specific binding)×100) and as a percent inhibition of control specific binding (100−((measured specific binding/control specific binding)×100)) obtained in the presence of the test compounds. […]
measured-attribute: inhibition at 1 µM (%)
Write down the numeric answer in % and omit the unit.

Recorded results for 3 molecules are shown here.
CCCc1ccc(S(=O)(=O)NCC2CN(CCCc3noc4cc(F)ccc34)C2)cc1 | 72
COc1ccc(S(=O)(=O)NC2CCN(CCCc3noc4cc(F)ccc34)C2)cc1 (centres unmarked) | 57
COc1ccc2cc(S(=O)(=O)NC3CCN(CCCc4noc5cc(F)ccc45)C3)ccc2c1 (centres unmarked) | 96

Q) Look at this molecule and give its reported inhibition at 1 µM. `Cn1ccc2c(S(=O)(=O)NC3CCN(CCCc4noc5cc(F)ccc45)CC3)cccc21`
A) 68

Q) Look at this molecule and give its reported inhibition at 1 µM. O=S(=O)(NCC1CCN(CCCc2noc3cc(F)ccc23)C1)c1ccc(Cl)c(Cl)c1 (centres unmarked)
A) 55
